Here, each record is paired with measured mean cell size data.
# Tested on: Jurkat
# assay: mean cell size (FSC-A) relative to DMSO control (fraction of control); higher = larger cells
# reported-conditions: 48 h
In your answer, state the number alone without any accompanying words.

Data request: Which mean cell size is reported for this molecule? C[C@H]1O[C@H](O[C@H]2[C@H](O)[C@@H](O)[C@@H](O[C@@H]([C@H](O)[C@@H](O)C=O)[C@H](O)CO)O[C@@H]2CO)[C@H](O)[C@@H](O)[C@@H]1N[C@H]1C=C(CO)[C@@H](O)[C@H](O)[C@H]1O [Acarbose] (concentration: 25 µM)
Data returned: 1.04

Now, please, on to the next molecule.
Data request: Which mean cell size is reported for this molecule? C[C@H]1C[C@H]2[C@@H]3CCC4=CC(=O)C=C[C@]4(C)[C@@]3(F)[C@@H](O)C[C@]2(C)[C@@]1(O)C(=O)CO [Betamethasone] (concentration: 25 µM)
Data returned: 0.914
